# literature pull: TBK1 (Homo sapiens, UniProt Q9UHD2) IC50
# Sequence (Q9UHD2 whole entry): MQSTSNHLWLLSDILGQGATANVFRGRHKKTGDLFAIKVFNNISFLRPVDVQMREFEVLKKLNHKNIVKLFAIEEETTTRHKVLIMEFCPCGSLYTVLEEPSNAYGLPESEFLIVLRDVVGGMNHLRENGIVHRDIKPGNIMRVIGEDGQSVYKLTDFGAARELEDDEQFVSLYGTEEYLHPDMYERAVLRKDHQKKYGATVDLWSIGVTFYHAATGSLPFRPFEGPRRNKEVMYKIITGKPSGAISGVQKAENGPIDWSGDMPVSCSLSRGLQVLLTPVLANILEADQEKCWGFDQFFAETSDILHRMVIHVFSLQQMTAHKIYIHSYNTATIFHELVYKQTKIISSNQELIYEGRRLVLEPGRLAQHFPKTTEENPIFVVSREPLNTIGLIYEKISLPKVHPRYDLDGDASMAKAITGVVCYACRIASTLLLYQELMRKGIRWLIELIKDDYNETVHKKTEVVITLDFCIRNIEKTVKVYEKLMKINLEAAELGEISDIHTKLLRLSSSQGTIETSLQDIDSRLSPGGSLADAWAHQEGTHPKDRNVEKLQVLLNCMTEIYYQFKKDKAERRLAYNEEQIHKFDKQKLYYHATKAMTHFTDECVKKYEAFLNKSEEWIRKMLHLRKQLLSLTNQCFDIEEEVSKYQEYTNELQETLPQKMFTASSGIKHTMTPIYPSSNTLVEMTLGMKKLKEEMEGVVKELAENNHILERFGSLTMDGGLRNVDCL

Some solved entries appear below for comparison.
[
  {
    "Cpd Smiles": "Cn1cc(Nc2ncc3ccn(CCCNC(=O)C4CCC4)c3n2)cn1",
    "IC50": "< 100 nM"
  },
  {
    "Cpd Smiles": "CN1CCC(n2cc(-c3cnc4[nH]cc(-c5ccc(OC6CCOCC6)c(C#N)c5)c4c3)nn2)CC1",
    "IC50": "< 300 nM"
  },
  {
    "Cpd Smiles": "CC(=O)Nc1ccc(-c2ccnc(Nc3ccc(C)cc3)n2)c2c1C(=O)NC2",
    "IC50": "> 10000 nM"
  }
]

Read the next record carefully.
Challenge: Which IC50 value is on record for O=C(CC1CC1)NCCCn1ccc2cnc(Nc3ccc(N4CCOCC4)nc3)nc21 ?
Response given: 100 to 1000 nM
